Numbers sourced from patent US20100160335A1.

biological target: PDE3A catalytic domain (PDE3Acat) (Homo sapiens, UniProt Q14432); construct: made in house; host or cells: Sf9 insect cells (baculovirus, Bac-to-Bac / Gateway); experiment: Phosphodiesterase inhibitory activity, PDE3 ([3H]cAMP, recombinant enzyme); assay type: biochemical; settings: 30° C., 20 minutes, read-out: IC50(μmol/L) PDE3
Sequence (Q14432 674-1093 limits assumed): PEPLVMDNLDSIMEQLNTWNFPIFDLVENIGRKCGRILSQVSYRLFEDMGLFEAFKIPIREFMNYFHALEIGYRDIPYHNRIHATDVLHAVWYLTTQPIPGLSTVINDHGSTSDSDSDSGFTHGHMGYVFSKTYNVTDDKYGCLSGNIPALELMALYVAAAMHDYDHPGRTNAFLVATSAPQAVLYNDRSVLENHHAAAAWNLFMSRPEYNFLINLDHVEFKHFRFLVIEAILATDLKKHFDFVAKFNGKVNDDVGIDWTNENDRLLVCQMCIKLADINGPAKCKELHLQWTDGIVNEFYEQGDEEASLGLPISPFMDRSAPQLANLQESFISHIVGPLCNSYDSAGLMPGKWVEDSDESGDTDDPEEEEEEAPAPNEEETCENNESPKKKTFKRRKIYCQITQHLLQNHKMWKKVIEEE
Examples of molecules with documented IC50 follow.

# MOLECULE, IC50
data = [
    ("CCc1ccc2c(-c3ccc(=O)n(CCCCOc4ccc(C5=NNC(=O)CC5C)cc4F)n3)ccc(OC)c2n1 (single isomer, unassigned; (-)) [Example 329]", "< 0.1 µmol/L"),
    ("COc1ccc(-c2ccc(=O)n(CCCCOc3ccc(C4=NNC(=O)CC4C)cc3)n2)c2ccc(C(F)(F)F)nc12 (stereo not shown)", "0.1 to 1 µmol/L"),
    ("COc1ccc(-c2ccc(=O)n(CCCCOc3ccc(C4=NNC(=O)CC4)c(F)c3F)n2)c2cccnc12", "< 0.1 µmol/L"),
    ("CCc1ccc2c(-c3ccc(=O)n(CCCCOc4ccc(C5=NNC(=O)CC5)cc4F)n3)ccc(OC)c2n1", "< 0.1 µmol/L"),
    ("CCc1ccc2c(C3=NN(CCCCOc4ccc(C5=NNC(=O)CC5C)cc4F)C(=O)CC3C)ccc(OC)c2n1 (stereo not shown)", "< 0.1 µmol/L"),
]

Reported IC50, molecule COc1ccc(C2=NN(CCCCOc3ccc(C4=NNC(=O)CC4C)cc3)C(=O)CC2C)c2cc(C(F)(F)F)oc12 (stereo not shown) : ____ 0.1 to 1 µmol/L

----------
target: PDE4Bcat (Homo sapiens); test: Phosphodiesterase inhibitory activity, PDE4 ([3H]cAMP, recombinant enzyme); details: 30° C., 20 minutes, read-out: IC50(μmol/L) PDE4
READOUT: IC50

As a guide, the following entries are already answered.
# COMPOUND, IC50
rows = [
    ("CCc1ccc2c(C3=NN(CCCCOc4ccc(C5=NNC(=O)C5(C)C)cc4F)C(=O)CC3C)ccc(OC)c2n1 (centres unmarked)", "< 0.1 µmol/L"),
    ("COc1ccc(-c2ccc(=O)n(CCCCOc3ccc(C4=NNC(=O)CC4)c(F)c3F)n2)c2ccc(C)nc12", "< 0.1 µmol/L"),
    ("COc1ccc(C2=NN(CCCCOc3ccc(C4=NNC(=O)CC4C)cc3)C(=O)CC2C)c2cccnc12 (centres unmarked)", "0.1 to 1 µmol/L"),
    ("COc1ccc(-c2ccc(=O)n(CCCCOc3ccc(C4=NNC(=O)CC4C)c(F)c3F)n2)c2nc(C(F)(F)F)nn12 (centres unmarked)", "1 to 10 µmol/L"),
    ("CCc1ccc2c(-c3ccc(=O)n(CCCCOc4ccc(C5=NNC(=O)CC5C)cc4)n3)ccc(OC)c2n1 (centres unmarked)", "0.1 to 1 µmol/L"),
]

Look at this compound and give its reported IC50. CCc1ccc2c(-c3ccc(=O)n(CCCOc4ccc(C5=NNC(=O)CC5)c(F)c4F)n3)ccc(OC)c2n1 1 to 10 µmol/L

Param item = COc1ccc(-c2ccc(=O)n(CCCCOc3ccc(C4=NNC(=O)CC4)c(F)c3F)n2)n2cc(C(F)(F)F)nc12 ; retrieve measured IC50. 0.1 to 1 µmol/L

----------
biological target: PDE4Bcat (Homo sapiens, UniProt Q07343); test: Phosphodiesterase inhibitory activity, PDE4 ([3H]cAMP, recombinant enzyme); conditions: 30° C., 20 minutes, read-out: IC50(μmol/L) PDE4
Sequence (Q07343 330-659 limits assumed): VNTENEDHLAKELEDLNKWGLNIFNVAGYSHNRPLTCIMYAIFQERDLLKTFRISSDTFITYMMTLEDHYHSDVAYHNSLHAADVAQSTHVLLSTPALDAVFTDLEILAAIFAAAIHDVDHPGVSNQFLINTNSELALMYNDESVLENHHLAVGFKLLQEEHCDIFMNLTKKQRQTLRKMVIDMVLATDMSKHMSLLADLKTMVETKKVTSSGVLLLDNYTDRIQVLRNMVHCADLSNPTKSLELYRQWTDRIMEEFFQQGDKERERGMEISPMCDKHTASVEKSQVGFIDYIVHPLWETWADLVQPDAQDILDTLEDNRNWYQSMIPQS
READOUT: IC50

# COMPOUND, IC50
records = [
    ("CCc1ccc2c(C3=NN(CCCCOc4ccc(C5=NNC(=O)CC5C)cc4)C(=O)CC3C)ccc(OC)c2n1 (single isomer, unassigned) [Example 339]", "< 0.1 µmol/L"),
    ("CCc1ccc2c(C3=NN(CCCCOc4ccc(C5=NNC(=O)CC5C)cc4)C(=O)CC3C)ccc(OC)c2n1 (single isomer, unassigned) [Example 341]", "< 0.1 µmol/L"),
    ("COc1ccc(C2=NN(CCCCOc3ccc(C4=NNC(=O)CC4C)cc3)C(=O)CC2C)c2ccc(C)nc12 (stereo not shown) [Example 267]", "< 0.1 µmol/L"),
]

GET /values?readout=IC50&item= CCc1ccc2c(-c3ccc(=O)n(CCCCOc4ccc(C5=NNC(=O)CC5C)cc4F)n3)ccc(OC)c2n1 (single isomer, unassigned; (+)) [Example 328] 0.1 to 1 µmol/L

Form field: reported IC50 of COc1ccc(-c2ccc(=O)n(CCCCOc3ccc(C4=NNC(=O)CC4C)c(F)c3F)n2)c2ccc(C)nc12 (stereo not shown) [Example 273] < 0.1 µmol/L
